Target: KRAS (G12C)::SOS1 (Homo sapiens (Human), UniProt P01116, C118S/C51S/C80L/G12C)
Sequence (P01116 other isoform, or with tags, fused parts or gaps G12C/C51S/C80L/C118S): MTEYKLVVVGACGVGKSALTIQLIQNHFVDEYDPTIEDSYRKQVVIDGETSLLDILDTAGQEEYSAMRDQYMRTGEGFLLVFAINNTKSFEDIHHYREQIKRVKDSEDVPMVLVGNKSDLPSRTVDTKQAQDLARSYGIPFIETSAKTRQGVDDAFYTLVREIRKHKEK
Experiment: KRAS::SOS1 AlphaScreen binding assay, KRAS G12C
RECORDED METRIC: IC50

Ask | Given the entry COCCNC(=O)c1ccn(-c2cc(O[C@@H](C)[C@@H]3[C@@H](OC)CCN3C)nc(-c3noc4c3CCC[C@@]43CCCc4sc(N)c(C#N)c43)n2)n1 [II-200] , report its measured IC50.
Reply | 1 nM

Ask | Try C[C@H](Oc1cc(-n2cc3ccn([C@H]4CCOC4)c(=O)c3n2)nc(-c2noc3c2CCC[C@@]32CCCc3sc(N)c(C#N)c32)n1)[C@@H]1CCCN1C [II-202] next.
Reply | 1 nM

Ask | Try CO[C@H]1CCN(C)[C@@H]1[C@H](C)Oc1cc(-n2ccc(CC(=O)NC(C)C)n2)nc(-c2noc3c2CCC[C@@]32CCCc3sc(N)c(C#N)c32)n1 [II-183] next.
Reply | 2 nM

Ask | Try C[C@H](Oc1cc(-c2ccccn2)nc(-c2noc3c2CCC[C@@]32CCCc3sc(N)c(C#N)c32)n1)[C@@H]1CCCN1C [II-85] next.
Reply | 2 nM
